conditions: 303.15 K; Liquid; Closed cell (Static) method
Entries and their vapor or sublimation pressure
Write it as a number; the unit kPa goes unstated.

>>> obs_value("C1CCCCC1")
16.26
>>> obs_value("CCCCCCC")
7.787
>>> obs_value("CCCOC(C)=O [propyl ethanoate]")
5.875

Now for another entry.
vapor or sublimation pressure for C=CCCCC is 30.46

====

Below is a list of entries, each paired with its recorded vapor or sublimation pressure value.
conditions: 363.15 K; Liquid; Closed cell (Static) method
Just the number in kPa, nothing appended.

These solved cases illustrate the format of a correct answer.
>>> obs_value("C1CCCCC1 [cyclohexane]")
132.33
>>> obs_value("CCCCCCC [heptane]")
78.59
>>> obs_value("CCCOC(C)=O [propyl ethanoate]")
70.64

C=CCCCC [hex-1-ene] has a reported vapor or sublimation pressure of 218.5
